biological target: human GR (Homo sapiens); assay: Transrepression Assay (GITAR), TNFα-β-lactamase reporter in U937 cells; assay type: cell-based; set-up: U937 cells contain an endogenous glucocorticoid receptor (GR); endogenous in cells; host or cells: U937 cells stably transfected with the TNF-alpha promoter/beta-lactamase reporter; conditions: U-937, activity repressed by 100 nM dexamethasone alone set as 100%; read-out: maximal activity in the transrepression (GITAR) assay
Sequence (P04150 whole entry): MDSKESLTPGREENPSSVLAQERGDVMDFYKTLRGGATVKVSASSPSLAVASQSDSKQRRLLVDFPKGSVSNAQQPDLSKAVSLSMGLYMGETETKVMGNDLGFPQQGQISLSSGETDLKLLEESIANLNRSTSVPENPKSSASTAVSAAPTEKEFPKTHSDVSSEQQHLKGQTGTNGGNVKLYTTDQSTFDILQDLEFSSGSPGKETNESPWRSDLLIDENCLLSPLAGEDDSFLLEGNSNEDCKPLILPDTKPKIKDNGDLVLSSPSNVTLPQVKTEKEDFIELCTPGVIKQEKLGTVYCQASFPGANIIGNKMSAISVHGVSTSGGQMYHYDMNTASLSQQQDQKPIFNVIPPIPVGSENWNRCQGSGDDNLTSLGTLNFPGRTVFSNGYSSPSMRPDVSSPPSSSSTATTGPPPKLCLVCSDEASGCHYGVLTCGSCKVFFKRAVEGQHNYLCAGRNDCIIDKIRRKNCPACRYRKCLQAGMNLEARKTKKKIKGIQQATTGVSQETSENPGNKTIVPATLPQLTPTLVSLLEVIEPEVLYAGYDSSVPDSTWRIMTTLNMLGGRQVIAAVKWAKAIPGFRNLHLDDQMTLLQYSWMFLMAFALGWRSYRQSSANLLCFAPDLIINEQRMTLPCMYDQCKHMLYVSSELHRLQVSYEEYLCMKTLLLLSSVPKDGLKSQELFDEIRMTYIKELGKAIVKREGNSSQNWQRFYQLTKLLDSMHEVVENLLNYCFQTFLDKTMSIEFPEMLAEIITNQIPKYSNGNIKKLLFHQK
endpoint: Emax

For orientation, consider the following solved cases.
Emax of C[C@]12Cc3cnn(-c4ccc(F)cc4)c3C=C1CC[C@@H]2CN(CCO)S(=O)(=O)c1ccc(F)c(Cl)c1 , assay on human GR (Homo sapiens), is > 5%

Noted Emax for C[C@]12Cc3cnn(-c4ccc(F)cc4)c3C=C1CC[C@@H]2CN(CCc1ccccn1)S(=O)(=O)Cc1ccccc1C(N)=O , tested on human GR (Homo sapiens): > 5%

# value of Emax, human GR (Homo sapiens), item COC(=O)c1ccccc1S(=O)(=O)N(C[C@H]1CCC2=Cc3c(cnn3-c3ccc(F)cc3)C[C@@]21C)C[C@H](C)O = > 5%

Query C[C@]12Cc3cnn(-c4ccc(F)cc4)c3C=C1CC[C@@H]2CN(CCO)S(=O)(=O)c1ccccc1C#N on human GR (Homo sapiens); Emax returned: > 5%

Value (Emax, human GR (Homo sapiens)) for record Cc1nn(C)c(Cl)c1S(=O)(=O)N(CCO)C[C@H]1CCC2=Cc3c(cnn3-c3ccc(F)cc3)C[C@@]21C = > 5%

Others:
With human GR (Homo sapiens) as the test system, C[C@]12Cc3cnn(-c4ccc(F)cc4)c3C=C1CC[C@@H]2CN(CCO)S(=O)(=O)Cc1ccccc1C(N)=O showed Emax of > 5%

Here C[C@]12Cc3cnn(-c4ccccc4)c3C=C1CC[C@@H]2CN(CCc1ccccn1)S(=O)(=O)Cc1cccnc1 was tested on human GR (Homo sapiens), and its Emax came to > 5%

Sample COC(=O)c1ccccc1S(=O)(=O)N(CCc1ccccc1F)C[C@H]1CCC2=Cc3c(cnn3-c3ccc(F)cc3)C[C@@]21C , system: human GR (Homo sapiens). Its Emax is > 5%

Field Emax (system: human GR (Homo sapiens)) for entry C[C@]12Cc3cnn(-c4ccc(F)cc4)c3C=C1CC[C@@H]2CN(CC1CC1)S(=O)(=O)c1ccccc1Cl = > 5%
